Origin of values: patent US20110250135A1

Test: Biodistribution: organ distribution of F-18 signal in mice
Assay type: in vivo, male NMRI mice
Details: lung, 60 min post i.v. injection
Listed here: items and their measured Organ distribution of F-18 signal, lung.
Your answer is read as % ID/g, so omit the unit and give the number.

Recorded Organ distribution of F-18 signal, lung of O=C(NCC(=O)N1CCN(c2ccc(OCc3ccccc3)cc2)CC1)c1ccnc([18F])c1 [Example 11c] , please.
0.69

Another compound to check: O=C(NCC(=O)N1CCN(c2ccc(OCc3ccccc3)cc2)CC1)c1cccnc1[18F] [Example 12c]
0.79

Another compound to check: O=C(NCC(=O)N1CCN(c2ccc(OCc3ccccc3)cc2)CC1)c1cccc(OCC[18F])c1
1.66

Another compound to check: O=C(NCC(=O)N1CCN(c2ccc(OCc3ccccc3)cc2)CC1)c1ccc([18F])nc1 [Example 10e]
0.89

Another compound to check: O=C(NCC(=O)N1CCN(c2ccc(OCc3ccccc3)cn2)CC1)c1ccnc([18F])c1 [Example 14f]
0.42

---

Experiment: Biodistribution: organ distribution of F-18 signal in mice
Assay type: in vivo, male NMRI mice
Conditions: thyroid, 60 min post i.v. injection
Assay Metric: Organ distribution of F-18 signal, thyroid (% ID/g)
Your answer is read as % ID/g, so omit the unit and give the number.

{"columns": ["Molecule", "Number"],
 "data": [
  ["O=C(NCC(=O)N1CCN(c2ccc(OCc3ccccc3)cc2)CC1)c1cccnc1[18F] [Example 12c]", 1.27],
  ["O=C(NCC(=O)N1CCN(c2ccc(OCc3ccccc3)cc2)CC1)c1ccnc([18F])c1 [Example 11c]", 0.50],
  ["O=C(NCC(=O)N1CCN(c2ccc(OCc3ccccc3)cc2)CC1)c1ccc([18F])nc1 [Example 10e]", 0.56],
  ["O=C(NCC(=O)N1CCN(c2ccc(OCc3ccccc3)cn2)CC1)c1ccnc([18F])c1 [Example 14f]", 0.30]
]}

For the next question, use this molecule.
Recorded Organ distribution of F-18 signal, thyroid of O=C(NCC(=O)N1CCN(c2ccc(OCc3ccccc3)cc2)CC1)c1cccc(OCC[18F])c1 , please.
1.04

---

Experiment: Biodistribution: organ distribution of F-18 signal in mice
Type: in vivo, male NMRI mice
Settings: testicle, 240 min post i.v. injection
Assay Metric: Organ distribution of F-18 signal, testicle (% ID/g)
Your answer is read as % ID/g, so omit the unit and give the number.

{"columns": ["Molecule", "Unit Label", "Number"],
 "data": [
  ["O=C(NCC(=O)N1CCN(c2ccc(OCc3ccccc3)cn2)CC1)c1ccnc([18F])c1 [Example 14f]", "% ID/g", 0.04],
  ["O=C(NCC(=O)N1CCN(c2ccc(OCc3ccccc3)cc2)CC1)c1cccnc1[18F] [Example 12c]", "% ID/g", 0.08],
  ["O=C(NCC(=O)N1CCN(c2ccc(OCc3ccccc3)cc2)CC1)c1ccc([18F])nc1 [Example 10e]", "% ID/g", 0.06],
  ["O=C(NCC(=O)N1CCN(c2ccc(OCc3ccccc3)cc2)CC1)c1ccnc([18F])c1 [Example 11c]", "% ID/g", 0.15]
]}

For the next question, use this molecule.
Recorded Organ distribution of F-18 signal, testicle of O=C(NCC(=O)N1CCN(c2ccc(OCc3ccccc3)cc2)CC1)c1cccc(OCC[18F])c1 , please.
0.38
